# subject_of_test: Pol polyprotein (Human immunodeficiency virus 2, UniProt P88142)
# Sequence (P88142 whole entry): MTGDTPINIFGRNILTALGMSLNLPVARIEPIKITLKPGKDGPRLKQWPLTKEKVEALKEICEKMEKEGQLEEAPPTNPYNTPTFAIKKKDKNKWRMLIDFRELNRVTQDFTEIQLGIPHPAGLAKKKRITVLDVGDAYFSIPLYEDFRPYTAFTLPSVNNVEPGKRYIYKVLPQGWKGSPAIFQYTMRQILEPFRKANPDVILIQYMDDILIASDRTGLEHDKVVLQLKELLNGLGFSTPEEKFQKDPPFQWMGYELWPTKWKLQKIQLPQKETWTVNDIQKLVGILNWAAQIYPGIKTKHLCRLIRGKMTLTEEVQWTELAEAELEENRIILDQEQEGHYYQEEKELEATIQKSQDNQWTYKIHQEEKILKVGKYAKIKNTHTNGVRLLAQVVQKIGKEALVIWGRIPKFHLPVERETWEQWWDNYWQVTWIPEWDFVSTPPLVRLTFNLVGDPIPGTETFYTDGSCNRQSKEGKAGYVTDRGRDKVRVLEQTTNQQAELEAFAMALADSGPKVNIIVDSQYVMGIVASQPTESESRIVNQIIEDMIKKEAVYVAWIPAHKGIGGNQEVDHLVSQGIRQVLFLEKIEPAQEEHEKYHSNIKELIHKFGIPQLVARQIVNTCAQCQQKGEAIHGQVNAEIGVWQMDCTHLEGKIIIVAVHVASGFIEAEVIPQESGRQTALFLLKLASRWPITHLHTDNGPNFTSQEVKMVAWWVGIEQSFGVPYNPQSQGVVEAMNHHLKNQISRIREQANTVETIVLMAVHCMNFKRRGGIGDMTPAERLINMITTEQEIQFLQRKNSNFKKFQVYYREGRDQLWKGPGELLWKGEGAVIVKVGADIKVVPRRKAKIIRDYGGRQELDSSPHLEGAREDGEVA
# protocol: Inhibition of HIV-2 protease in 5%DMSO
parameter_measured: pIC50
The read-out pIC50 is expressed as -log10 of concentration in moles per litre.

Name the recorded pIC50 for CC1=C(CCC(=O)O)c2cc3nc(cc4[nH]c(cc5[nH]c(cc1n2)c(C)c5C(COC(=O)C1=CC1)OC(=O)C1=CC1)c(C)c4C(COC(=O)C1=CC1)OC(=O)C1=CC1)C(C)=C3CCC(=O)O (stereo unspecified) . 6.15

----------
# subject_of_test: Human immunodeficiency virus type 1 protease (Human immunodeficiency virus 1, UniProt Q72874)
# protocol: Inhibition of HIV-1 protease in 10% fetal calf serum(FCS)
parameter_measured: pIC50
The read-out pIC50 is expressed as -log10 of concentration in moles per litre.

Name the recorded pIC50 for CC1=C(CCC(=O)O)c2cc3nc(cc4[nH]c(cc5[nH]c(cc1n2)c(C)c5C(COC(=O)C1=CCC1)OC(=O)C1=CCC1)c(C)c4C(COC(=O)C1=CCC1)OC(=O)C1=CCC1)C(C)=C3CCC(=O)O (centres undefined) . 5.00

What do we get for CC1=C(CCC(=O)O)/C2=C/c3c(CCC(=O)O)c(C)c4[n]3[Mn][n]3/c(c(C)c(C(COC(=O)C5=CC5)OC(=O)C5=CC5)/c3=C/C3=NC(=C\4)/C(C(COC(=O)C4=CC4)OC(=O)C4C=C4)=C3C)=C\C1=N2 (centres undefined) ? 4.19

What do we get for CC1=C(CCC(=O)O)/C2=C/c3c(CCC(=O)O)c(C)c4[n]3[Co][n]3/c(c(C)c(C(COC(=O)C5=CC5)OC(=O)C5=CC5)/c3=C/C3=NC(=C\4)/C(C(COC(=O)C4=CC4)OC(=O)C4=CC4)=C3C)=C\C1=N2 (centres undefined) ? 4.60
